Tested on: SNU668
EXPERIMENT: Cell viability drug screen, 12-point dose-response AUC
Format: cell-based, human
STATED_CONDITIONS: SNU668 cells; 72 hours; 12-point dose-response
Method: An FDA-approved small-molecule pharmacological compound (#L1300) and an anticancer compound for research (#L2000) were purchased from Selecckchem and a 10 mM solution was prepared in DMSO. […] Cells cultured for cell-based drug assay were inoculated into a 96-well white optical plate (Corning) at 5×10^3 cells per well. […] The final drug concentration in the 5 ns range and the DMSO specification control (0.5%) were calculated. […]
Listed here are compounds together with their documented area under the viability curve (AUC), normalized.
Number only, please.

structure_notation=CC(=O)O[C@H]1C(=O)[C@@]2(C)[C@H]([C@H](OC(=O)c3ccccc3)[C@]3(O)C[C@H](OC(=O)[C@H](O)[C@@H](NC(=O)c4ccccc4)c4ccccc4)C(C)=C1C3(C)C)[C@]1(OC(C)=O)CO[C@@H]1C[C@@H]2O endpoint_result=−0.02282
structure_notation=Cc1ccc(C(=O)N(CCCN)[C@@H](c2oc3cc(Cl)ccc3c(=O)c2Cc2ccccc2)C(C)C)cc1 endpoint_result=0

As a next step, examine the compound that follows.
-- ask Recorded area under the viability curve (AUC), normalized of `C#Cc1cccc(Nc2ncnc3cc(OC)c(OCCCCCCC(=O)NO)cc23)c1` , please.
-- reply 0.9508

* * *

Tested on: SNU638
EXPERIMENT: Cell viability drug screen, 12-point dose-response AUC
Assay type: cell-based, human
STATED_CONDITIONS: SNU638 cells; 72 hours
Where a name gives a salt, the structure may show the parent alone.
Entries and their Average Area Under the Viability Curve (AUC), AUC norm value values follow.
Give your answer as a number; write no unit.

// worked examples, Average Area Under the Viability Curve (AUC), AUC norm value included
compound="c1ccc2c(-c3cnn4cc(-c5ccc(N6CCNCC6)cc5)cnc34)ccnc2c1 [LDN193189]" endpoint_result=−0.9699
compound="CCCCC(CC)CNC(=N)NC(=N)NCCCCCCNC(=N)NC(=N)NCC(CC)CCCC (centres unmarked) [Alexidine HCl]" endpoint_result=−0.612
compound="CO[C@@H](C(=O)N1Cc2n[nH]c(NC(=O)c3ccc(N4CCN(C)CC4)cc3)c2C1)c1ccccc1 [Danusertib (PHA-739358), Danusertib]" endpoint_result=−0.2145
compound="CCCCCCCCCCCCCCCC[N+](C)(C)CCN(Cc1ccc(OC)cc1)c1ncccn1 [Thonzonium Bromide]" endpoint_result=−0.4973
compound="CO[C@H]1C(=O)[C@]2(C)[C@@H](OC)C[C@H]3OC[C@@]3(OC(C)=O)[C@H]2[C@H](OC(=O)c2ccccc2)[C@]2(O)C[C@H](OC(=O)[C@H](O)[C@@H](NC(=O)OC(C)(C)C)c3ccccc3)C(C)=C1C2(C)C [Cabazitaxel (Jevtana), Cabazitaxel]" endpoint_result=−0.1608

-- ask // lookup Average Area Under the Viability Curve (AUC), AUC norm value for Cc1ccc(S(=O)(=O)/C=C/C#N)cc1 [BAY 11-7082 (BAY 11-7821), BAY 11-7082]
-- reply −1.497

-- ask Can you check O=C(Nc1c[nH]nc1-c1nc2ccc(CN3CCOCC3)cc2[nH]1)NC1CC1 [AT9283] next?
-- reply −0.01142

-- ask Please answer likewise for CC[C@@]1(O)C(=O)OCc2c1cc1n(c2=O)Cc2cc3ccccc3nc2-1 [Camptothecin]
-- reply −0.9365

-- ask Another compound to check: NC(=O)Nc1cc(-c2cccc(F)c2)sc1C(=O)N[C@H]1CCCNC1 [AZD7762]
-- reply 1.404

-- ask Entry to check: O=C(/C=C/c1cccc(S(=O)(=O)Nc2ccccc2)c1)NO [Belinostat (PXD101), Belinostat]
-- reply −0.5011

* * *

Below, each entry is listed alongside its reported area under the viability curve (AUC), normalized.
System: SNU719
EXPERIMENT: Cell viability drug screen, 12-point dose-response AUC
Type: cell-based, human
STATED_CONDITIONS: SNU719 cells; 72 hours; 12-point dose-response
Would you mind answering with just the numeric figure?

Sample records with area under the viability curve (AUC), normalized:
compound="CC(C)C[C@H](NC(=O)CNC(=O)c1cc(Cl)ccc1Cl)B(O)O [MLN2238]" measured_on=SNU719 endpoint_result=0.4168
compound="Cc1cnc(NC(=O)Nc2cc(Br)c(C)cc2OC[C@@H]2CNCCO2)cn1 [LY2603618]" measured_on=SNU719 endpoint_result=2.404
compound="C#Cc1cccc(Nc2ncnc3cc(OC)c(OCCCCCCC(=O)NO)cc23)c1 [CUDC-101]" measured_on=SNU719 endpoint_result=0.9348

// moving on: another record for area under the viability curve (AUC), normalized
-- ask Which value of area under the viability curve (AUC), normalized has been reported for CC(=O)O[C@H]1C(=O)[C@@]2(C)[C@H]([C@H](OC(=O)c3ccccc3)[C@]3(O)C[C@H](OC(=O)[C@H](O)[C@@H](NC(=O)c4ccccc4)c4ccccc4)C(C)=C1C3(C)C)[C@]1(OC(C)=O)CO[C@@H]1C[C@@H]2O [Paclitaxel (Taxol), Paclitaxel] in the records?
-- reply 4.877

* * *

Tested on: SNU638
EXPERIMENT: Cell viability drug screen, 12-point dose-response AUC
Type: cell-based, human
STATED_CONDITIONS: SNU638 cells; 72 hours
Counter-ions that a name gives are not always drawn.
ENDPOINT_LABEL: Average Area Under the Viability Curve (AUC), AUC norm value
I only need the number, thanks.

compound="Nc1ccn([C@@H]2O[C@H](CO)[C@@H](O)C2(F)F)c(=O)n1 [Gemcitabine (Gemzar), Gemcitabine]" endpoint_result=−2.404
compound="COC1=CC(c2cc3ccccc3[nH]2)=N/C1=C\\c1[nH]c(C)cc1C [Obatoclax mesylate (GX15-070), Obatoclax mesylate]" endpoint_result=−0.5094
compound="O=C(/C=C/c1cccnc1)NCCCCC1CCN(C(=O)c2ccccc2)CC1 [APO866 (FK866), APO866]" endpoint_result=0.6032
compound="COc1cc([C@@H]2c3cc4c(cc3[C@@H](O[C@@H]3O[C@@H]5CO[C@@H](c6cccs6)O[C@H]5[C@H](O)[C@H]3O)[C@H]3COC(=O)[C@H]23)OCO4)cc(OC)c1O [Teniposide (Vumon), Teniposide]" endpoint_result=−0.3584

Proceeding to the next compound to report its Average Area Under the Viability Curve (AUC), AUC norm value.
-- ask What value of Average Area Under the Viability Curve (AUC), AUC norm value has been recorded for this entry: CCC[C@H](NC(=O)/C(C#N)=C/c1cccc(Br)n1)c1ccccc1 [WP1130]
-- reply −0.3485

* * *

System: MKN74
EXPERIMENT: Cell viability drug screen, 12-point dose-response AUC
Assay type: cell-based, human
STATED_CONDITIONS: MKN74 cells; 72 hours
Protocol: An FDA-approved small-molecule pharmacological compound (#L1300) and an anticancer compound for research (#L2000) were purchased from Selecckchem and a 10 mM solution was prepared in DMSO. […] Cells cultured for cell-based drug assay were inoculated into a 96-well white optical plate (Corning) at 5×10^3 cells per well. […] The final drug concentration in the 5 ns range and the DMSO specification control (0.5%) were calculated. […]
ENDPOINT_LABEL: Average Area Under the Viability Curve (AUC), AUC norm value

These solved cases illustrate the format of a correct answer.
compound="Nc1ccn([C@@H]2O[C@H](CO)[C@@H](O)C2(F)F)c(=O)n1 [Gemcitabine (Gemzar), Gemcitabine]" endpoint_result=−1.402
compound="COc1cc(N2CCC(N3CCN(C)CC3)CC2)ccc1Nc1ncc(Cl)c(Nc2ccccc2S(=O)(=O)C(C)C)n1 [TAE684 (NVP-TAE684), TAE684]" endpoint_result=−0.04126
compound="CC[C@@H]1C(=O)N(C)c2cnc(Nc3ccc(C(=O)NC4CCN(C)CC4)cc3OC)nc2N1C1CCCC1 [BI 2536]" endpoint_result=−0.6584

Pending compound:
-- ask API: value(readout= Average Area Under the Viability Curve (AUC), AUC norm value, system= MKN74, query= Cn1cc(CNCC2CCN(c3ncc(C(=O)NO)cn3)CC2)c2ccccc21 [JNJ-26481585] )
-- reply −0.06428

* * *

Test system: KATO3
EXPERIMENT: Cell viability drug screen, 12-point dose-response AUC
Type: cell-based, human
STATED_CONDITIONS: KATO3 cells; 72 hours; 12-point dose-response
ENDPOINT_LABEL: area under the viability curve (AUC), normalized
The answer should be written as a number, with no unit following it.

Use these answered entries as a reference point.
compound=CC(=O)O[C@H]1C(=O)[C@@]2(C)[C@H]([C@H](OC(=O)c3ccccc3)[C@]3(O)C[C@H](OC(=O)[C@H](O)[C@@H](NC(=O)c4ccccc4)c4ccccc4)C(C)=C1C3(C)C)[C@]1(OC(C)=O)CO[C@@H]1C[C@@H]2O measured_on=KATO3 endpoint_result=5.3572
compound=COc1ncc(-c2ccc3nccc(-c4ccnnc4)c3c2)cc1NS(=O)(=O)c1ccc(F)cc1F measured_on=KATO3 endpoint_result=3.911
compound=CC(/C=C/C(=O)NO)=C\[C@@H](C)C(=O)c1ccc(N(C)C)cc1 measured_on=KATO3 endpoint_result=−0.1555
compound=CN(C)c1ccc(C(=C2C=CC(=[N+](C)C)C=C2)c2ccc(N(C)C)cc2)cc1 measured_on=KATO3 endpoint_result=0.911
compound=Cc1cnc(NC(=O)Nc2cc(Br)c(C)cc2OC[C@@H]2CNCCO2)cn1 measured_on=KATO3 endpoint_result=1.256
compound=C/C(=C\c1csc(C)n1)[C@@H]1C[C@@H]2O[C@@H]2CCC[C@H](C)[C@H](O)[C@@H](C)C(=O)C(C)(C)[C@@H](O)CC(=O)O1 measured_on=KATO3 endpoint_result=4.761

-- ask Fill in the recorded area under the viability curve (AUC), normalized for this compound, with KATO3 as test system: `CC(C)C[C@H](NC(=O)[C@H](Cc1ccccc1)NC(=O)c1cnccn1)B(O)O`
-- reply 1.082

-- ask // same read-out, input: `Nc1cc(C(F)(F)F)c(-c2cc(N3CCOCC3)nc(N3CCOCC3)n2)cn1`
-- reply 2.449

-- ask Again, but for `C[C@@H]1O[C@@H](O[C@H]2C[C@@H](O)[C@]3(CO)[C@H]4[C@H](O)C[C@]5(C)[C@@H](C6=CC(=O)OC6)CC[C@]5(O)[C@@H]4CC[C@]3(O)C2)[C@H](O)[C@H](O)[C@H]1O`
-- reply 4.783

-- ask Moving on to the next compound: `COCCn1c2c([n+](Cc3cnccn3)c1C)C(=O)c1ccccc1C2=O`
-- reply −0.3081
